target: ΔN159ChlH (Thermosynechococcus vestitus, UniProt Q8DM52); construct: N-terminal head domain and linker (159 residues) deleted, starts at Met160; His6-tagged (pET9aHis6); E. coli; about 130 kDa; test: tryptophan fluorescence quenching
Sequence (Q8DM52 entry or part of it, stated change not applied): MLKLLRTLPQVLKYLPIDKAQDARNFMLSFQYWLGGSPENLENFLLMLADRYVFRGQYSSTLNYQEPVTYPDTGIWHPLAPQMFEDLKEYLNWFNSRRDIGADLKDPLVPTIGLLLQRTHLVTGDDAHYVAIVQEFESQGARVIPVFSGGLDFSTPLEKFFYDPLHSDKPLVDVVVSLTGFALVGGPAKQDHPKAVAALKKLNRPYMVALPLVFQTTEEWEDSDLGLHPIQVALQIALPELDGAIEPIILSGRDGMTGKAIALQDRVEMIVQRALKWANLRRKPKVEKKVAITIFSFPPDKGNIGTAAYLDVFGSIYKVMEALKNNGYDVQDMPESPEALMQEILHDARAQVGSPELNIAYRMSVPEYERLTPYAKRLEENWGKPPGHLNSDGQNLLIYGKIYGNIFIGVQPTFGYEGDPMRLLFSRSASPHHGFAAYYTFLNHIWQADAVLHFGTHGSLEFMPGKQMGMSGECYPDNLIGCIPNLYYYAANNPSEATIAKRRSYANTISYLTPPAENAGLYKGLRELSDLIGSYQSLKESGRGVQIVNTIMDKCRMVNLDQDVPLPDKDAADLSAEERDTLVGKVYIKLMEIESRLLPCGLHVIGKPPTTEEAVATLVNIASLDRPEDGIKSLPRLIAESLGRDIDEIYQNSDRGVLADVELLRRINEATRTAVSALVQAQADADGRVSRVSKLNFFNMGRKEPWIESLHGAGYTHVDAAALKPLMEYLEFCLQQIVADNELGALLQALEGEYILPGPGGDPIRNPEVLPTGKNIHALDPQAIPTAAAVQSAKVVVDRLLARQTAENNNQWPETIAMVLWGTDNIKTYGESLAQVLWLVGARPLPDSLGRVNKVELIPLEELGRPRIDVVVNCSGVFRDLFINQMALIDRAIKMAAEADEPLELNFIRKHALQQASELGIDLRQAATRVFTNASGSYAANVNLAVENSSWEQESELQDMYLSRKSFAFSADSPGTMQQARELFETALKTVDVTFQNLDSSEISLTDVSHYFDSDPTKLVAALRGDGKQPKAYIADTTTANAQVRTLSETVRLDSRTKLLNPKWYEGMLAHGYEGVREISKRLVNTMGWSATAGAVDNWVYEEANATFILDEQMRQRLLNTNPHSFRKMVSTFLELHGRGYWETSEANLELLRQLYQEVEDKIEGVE

{"columns": ["smiles.entry", "Kd [µM]"],
 "data": [
  ["CC1=C(CCC(=O)O)c2cc3nc(cc4[nH]c(cc4C)cc4[nH]c(cc1n2)cc4C)C(C)=C3CCC(=O)O", 1.06]
]}
